assay: GPC assay of active ingredients (repellent tracers) in EVA collars at T0 after injection and after 7 days of stability at 50° C.; assay type: physicochemical; settings: collar (C1); T0 loss plus loss after 7 days at 50° C.
cumulative loss: recorded values

{"compound": "CC(C)=CCCC(C)CC=O (stereo not shown)", "quantity_unit": "%", "cumulative loss": 50}
{"compound": "CC(C)=CCC/C(C)=C/CO", "quantity_unit": "%", "cumulative loss": 36}
{"compound": "CC(C)=CCCC(C)CCO (stereo not shown)", "quantity_unit": "%", "cumulative loss": 27}
{"compound": "CC12CCC(CC1)C(C)(C)O2", "quantity_unit": "%", "cumulative loss": 16}

Cited source: patent US12179400B2
